- measurementTarget: HEK cells stably transfected with tetracycline inducible hNR1 and hNR2A (Homo sapiens, UniProt Q05586+Q12879)
- Construct: expressed in transfected cells; host or cells: HEK cells, stably transfected, tetracycline/doxycycline inducible
- Sequence (Q12879 23-1464, other chains not shown): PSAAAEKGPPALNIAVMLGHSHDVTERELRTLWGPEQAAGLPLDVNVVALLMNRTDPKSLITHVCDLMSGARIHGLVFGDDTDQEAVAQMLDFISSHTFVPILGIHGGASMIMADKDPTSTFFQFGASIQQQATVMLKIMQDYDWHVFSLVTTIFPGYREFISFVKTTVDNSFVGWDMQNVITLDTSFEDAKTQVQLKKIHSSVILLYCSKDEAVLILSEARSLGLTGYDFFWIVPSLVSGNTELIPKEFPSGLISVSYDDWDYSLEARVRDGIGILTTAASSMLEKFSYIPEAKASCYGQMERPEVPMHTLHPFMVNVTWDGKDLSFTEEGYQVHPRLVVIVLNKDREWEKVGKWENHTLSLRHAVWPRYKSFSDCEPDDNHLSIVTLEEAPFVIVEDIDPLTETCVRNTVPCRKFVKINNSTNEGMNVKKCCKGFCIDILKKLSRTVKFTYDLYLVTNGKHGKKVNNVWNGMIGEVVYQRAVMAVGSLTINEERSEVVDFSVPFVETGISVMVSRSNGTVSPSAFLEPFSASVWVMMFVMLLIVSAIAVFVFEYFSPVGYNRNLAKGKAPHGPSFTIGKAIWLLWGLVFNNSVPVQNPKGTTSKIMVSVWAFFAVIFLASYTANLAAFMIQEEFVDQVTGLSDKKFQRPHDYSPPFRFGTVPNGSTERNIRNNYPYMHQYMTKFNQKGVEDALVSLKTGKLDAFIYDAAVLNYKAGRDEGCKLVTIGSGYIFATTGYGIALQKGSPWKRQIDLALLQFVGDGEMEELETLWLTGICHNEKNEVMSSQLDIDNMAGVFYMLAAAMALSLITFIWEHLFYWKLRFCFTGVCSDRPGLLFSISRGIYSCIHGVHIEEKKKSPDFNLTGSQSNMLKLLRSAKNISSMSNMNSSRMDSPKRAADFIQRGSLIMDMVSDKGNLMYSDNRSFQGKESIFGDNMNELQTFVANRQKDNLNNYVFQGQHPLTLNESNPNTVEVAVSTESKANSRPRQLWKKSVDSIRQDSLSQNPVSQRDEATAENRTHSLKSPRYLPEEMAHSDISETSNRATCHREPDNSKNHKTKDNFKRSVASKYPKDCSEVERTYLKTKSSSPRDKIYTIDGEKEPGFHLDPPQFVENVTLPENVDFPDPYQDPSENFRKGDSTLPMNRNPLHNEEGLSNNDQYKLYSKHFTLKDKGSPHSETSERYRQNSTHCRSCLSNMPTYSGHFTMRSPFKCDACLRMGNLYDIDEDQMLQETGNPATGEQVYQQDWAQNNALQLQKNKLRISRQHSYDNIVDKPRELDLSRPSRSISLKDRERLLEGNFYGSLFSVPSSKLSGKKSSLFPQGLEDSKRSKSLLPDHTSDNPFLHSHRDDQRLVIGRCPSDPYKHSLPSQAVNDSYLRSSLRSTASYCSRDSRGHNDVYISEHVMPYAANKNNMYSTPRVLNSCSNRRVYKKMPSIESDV
- testMethodNotes: Assay 1: Cell-Based Assay, cytosolic calcium response to positive allosteric modulators (with 30 μM glycine and 300 nM L-glutamate, EC30)
- protocolConditions: Table 2; cytosolic calcium response, with 30 μM glycine and 300 nM L-glutamate (EC30); — = no plateau was reached
pEC50: −log10 of the molar value.
If the reported pEC50 equals or exceeds 5, assign Met. If not, assign Not met.

INSERT INTO assay_data (chemicalstructure, class) VALUES
  ('CCN(Cc1cc(=O)n2c(-c3ncco3)c(C)sc2n1)c1ccc(F)cc1', 'Met'),
  ('CCN(Cc1cc(=O)n2c(CSC)c(C)sc2n1)c1ccc(F)cc1', 'Met'),
  ('CC1(C)CCc2sc3nc(Cn4nc(C(F)(F)F)cc4C4CC4)cc(=O)n3c21', 'Not met'),
  ('CCC(=O)c1c(C)sc2nc(COc3ccc(F)cc3)cc(=O)n12', 'Met');

* * *

Parameter: pEC50. Scope: all listed entries.
- measurementTarget: HEK cells stably transfected with tetracycline inducible hNR1 and hNR2A (Homo sapiens, UniProt Q05586+Q12879)
- Construct: expressed in transfected cells; host or cells: HEK cells, stably transfected, tetracycline/doxycycline inducible
- testMethodNotes: Assay 1: Cell-Based Assay, cytosolic calcium response to positive allosteric modulators (with 30 μM glycine and 300 nM L-glutamate, EC30)
- protocolConditions: Table 3; cytosolic calcium response, with 30 μM glycine and 300 nM L-glutamate (EC30); — = no plateau was reached
pEC50: −log10 of the molar value.
assayEndpoint: pEC50

INSERT INTO measurements (compound, assayendpoint, quantitativereadout) VALUES
  ('CCNC(=O)c1c(OCC)sc2nc(Cc3cccc(C(F)(F)F)c3F)cc(=O)n12', 'pEC50', 5.83),
  ('CNC(=O)c1c(C)sc2nc(Cc3ccc4c(c3)CC4)cc(=O)n12', 'pEC50', 5.23),
  ('CCNC(=O)c1c(OCC)sc2nc(Cn3nc(Cl)cc3C(F)(F)F)cc(=O)n12', 'pEC50', 5.05),
  ('O=c1cc(Cn2nc(C(F)(F)F)cc2Cl)nc2sc(C(F)(F)F)c(OCC(F)(F)F)n12', 'pEC50', 6.06),
  ('CC1CC1c1c(C(F)(F)F)sc2nc(Cn3nc(Cl)cc3C(F)(F)F)cc(=O)n12 (centres unmarked)', 'pEC50', 5.50),
  ('Cc1sc2nc(Cn3nc(C(F)(F)F)cc3Cl)cc(=O)n2c1C1CCC1', 'pEC50', 5.50),
  ('Cc1sc2nc(Cn3nc(C(F)(F)F)cc3Cl)cc(=O)n2c1C1CC1C (centres unmarked) [compound 118]', 'pEC50', 6.77),
  ('Cc1sc2nc(Oc3cccc(C(F)(F)F)c3F)cc(=O)n2c1C1CC1', 'pEC50', 4.40);

* * *

- measurementTarget: HEK cells stably transfected with tetracycline inducible hNR1 and hNR2A (Homo sapiens, UniProt Q05586+Q12879)
- Construct: expressed in transfected cells; host or cells: HEK cells, stably transfected, tetracycline/doxycycline inducible
- testMethodNotes: Assay 1: Cell-Based Assay, cytosolic calcium response to positive allosteric modulators (with 30 μM glycine and 300 nM L-glutamate, EC30)
- protocolConditions: Table 2; cytosolic calcium response, with 30 μM glycine and 300 nM L-glutamate (EC30); — = no plateau was reached
assayEndpoint: EC50 (µM)

INSERT INTO results (compound, assayendpoint, quantitativereadout) VALUES
  ('CCN(Cc1cc(=O)n2c(C#N)c(C)sc2n1)c1ccc(F)cc1 [Example 7.3]', 'EC50', 0.376),
  ('Cc1sc2nc(Cc3ccc(C(F)(F)F)cc3)cc(=O)n2c1C1CC1CO (centres unmarked) [Example 20.11]', 'EC50', 31.2),
  ('CCNC(=O)c1c(C)sc2nc(Cc3cc(F)c(F)cc3CC)cc(=O)n12 [Example 21.19]', 'EC50', 7.4),
  ('CCN(Cc1cc(=O)n2c(C(O)CCO)c(C)sc2n1)c1ccc(F)cc1 (single isomer, unassigned) [Example 12.3]', 'EC50', 1.6),
  ('CCN(Cc1cc(=O)n2c(C(C)(C)C)csc2n1)c1ccc(F)cc1 [Example 10.18]', 'EC50', 16.9),
  ('Cc1sc2nc(CN(C)c3ccc(F)cc3)cc(=O)n2c1-c1cncnc1 [Example 5.2]', 'EC50', 5.7),
  ('CCN(Cc1cc(=O)n2c3c(sc2n1)CCC3COC)c1ccc(F)cc1 (centres unmarked) [Example 8.15]', 'EC50', 2.3),
  ('Cc1sc2nc(COc3ccc(F)cc3)cc(=O)n2c1[C@@H]1C[C@H]1C(F)(F)F (relative stereo) [Example 4.24]', 'EC50', 2.1);
